Biological target: plasma purified human complement protein C3 (human) (UniProt P01024)
Sequence (P01024 23-667, chain 1 of 2): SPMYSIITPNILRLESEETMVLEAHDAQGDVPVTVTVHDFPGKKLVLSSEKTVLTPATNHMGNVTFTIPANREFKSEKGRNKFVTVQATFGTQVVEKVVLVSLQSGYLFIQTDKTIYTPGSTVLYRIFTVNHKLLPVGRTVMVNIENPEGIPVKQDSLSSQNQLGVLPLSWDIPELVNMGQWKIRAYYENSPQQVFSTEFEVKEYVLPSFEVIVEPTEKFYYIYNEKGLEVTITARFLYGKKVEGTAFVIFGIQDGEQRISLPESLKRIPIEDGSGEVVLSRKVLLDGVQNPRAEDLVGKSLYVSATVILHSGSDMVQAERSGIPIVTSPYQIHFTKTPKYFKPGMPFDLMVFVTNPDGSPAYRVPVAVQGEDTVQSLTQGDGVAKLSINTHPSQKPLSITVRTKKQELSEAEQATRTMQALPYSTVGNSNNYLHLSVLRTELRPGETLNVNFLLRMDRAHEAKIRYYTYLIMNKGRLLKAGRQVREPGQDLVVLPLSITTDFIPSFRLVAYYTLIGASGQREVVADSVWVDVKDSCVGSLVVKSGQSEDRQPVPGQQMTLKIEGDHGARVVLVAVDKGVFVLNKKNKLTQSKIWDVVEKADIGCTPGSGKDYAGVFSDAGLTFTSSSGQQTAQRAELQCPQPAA
Sequence (P01024 672-1663, chain 2 of 2): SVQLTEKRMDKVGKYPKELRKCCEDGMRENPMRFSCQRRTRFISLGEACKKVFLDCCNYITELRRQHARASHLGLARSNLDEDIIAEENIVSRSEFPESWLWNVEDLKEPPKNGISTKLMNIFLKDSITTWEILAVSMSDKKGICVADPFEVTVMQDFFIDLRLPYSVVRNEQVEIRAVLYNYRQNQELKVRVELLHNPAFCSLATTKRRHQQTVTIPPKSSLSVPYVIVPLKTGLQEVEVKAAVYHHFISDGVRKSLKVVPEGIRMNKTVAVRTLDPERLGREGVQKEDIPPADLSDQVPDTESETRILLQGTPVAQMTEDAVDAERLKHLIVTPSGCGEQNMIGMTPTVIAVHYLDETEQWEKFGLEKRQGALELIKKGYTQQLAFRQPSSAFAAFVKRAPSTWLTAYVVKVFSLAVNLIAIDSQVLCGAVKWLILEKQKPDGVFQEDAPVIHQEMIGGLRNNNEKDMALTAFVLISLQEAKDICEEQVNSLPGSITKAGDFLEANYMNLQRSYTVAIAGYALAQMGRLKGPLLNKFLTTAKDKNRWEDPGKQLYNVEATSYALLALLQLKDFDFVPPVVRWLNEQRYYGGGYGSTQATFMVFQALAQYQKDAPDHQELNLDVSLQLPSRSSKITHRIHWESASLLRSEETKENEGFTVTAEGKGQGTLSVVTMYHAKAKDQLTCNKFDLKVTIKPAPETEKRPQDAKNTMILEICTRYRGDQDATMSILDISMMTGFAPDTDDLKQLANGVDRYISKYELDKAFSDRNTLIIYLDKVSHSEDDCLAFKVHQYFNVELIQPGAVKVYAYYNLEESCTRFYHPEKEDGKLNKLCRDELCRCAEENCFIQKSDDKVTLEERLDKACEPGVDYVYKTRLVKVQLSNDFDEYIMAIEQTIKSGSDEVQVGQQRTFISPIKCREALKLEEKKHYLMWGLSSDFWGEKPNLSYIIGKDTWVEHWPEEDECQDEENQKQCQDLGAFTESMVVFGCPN
Test: cell-based or functional assay
value type: EC50 of hC3 cleavage

// below: answered binders
MTSP-1 Q38R/I41E/ins97aE/F97T/T98G/F99L/C122S/Q175L/Q192T (enzyme) VVGGTDADEGEWPWQVSLHALGRGHECGASLISPNWLVSAAHCYIDDRGFRYSDPTQWTAFLGLHDQSQRSAPGVQERRLKRIISHPFFNDTEGLDYDIALLELEKPAEYSSMVRPISLPDASHVFPAGKAIWVTGWGHTQYGGTGALILQKGEIRVINQTTCENLLPQLITPRMMCVGFLSGGVDSCTGDSGGPLSSVEADGRIFQAGVVSWGDGCAQRNKPGVYTRLPLFRDWIKENTGV : 63.3 nM
MTSP-1 Q38H/I41S/D60bT/F60eS/Y60gW/F97G/ins97aV/T98P/F99L/C122S/G151H/Q175L/Q192D (enzyme) VVGGTDADEGEWPWQVSLHALGHGHSCGASLISPNWLVSAAHCYIDTRGSRWSDPTQWTAFLGLHDQSQRSAPGVQERRLKRIISHPFFNDGVPLDYDIALLELEKPAEYSSMVRPISLPDASHVFPAGKAIWVTGWGHTQYGGTHALILQKGEIRVINQTTCENLLPQLITPRMMCVGFLSGGVDSCDGDSGGPLSSVEADGRIFQAGVVSWGDGCAQRNKPGVYTRLPLFRDWIKENTGV : 169 nM
MTSP-1 Q38E/H40R/I41H/F97D/F99L/C122S/Q192G (enzyme) VVGGTDADEGEWPWQVSLHALGEGRHCGASLISPNWLVSAAHCYIDDRGFRYSDPTQWTAFLGLHDQSQRSAPGVQERRLKRIISHPFFNDDTLDYDIALLELEKPAEYSSMVRPISLPDASHVFPAGKAIWVTGWGHTQYGGTGALILQKGEIRVINQTTCENLLPQQITPRMMCVGFLSGGVDSCGGDSGGPLSSVEADGRIFQAGVVSWGDGCAQRNKPGVYTRLPLFRDWIKENTGV : 30.9 nM

Q: Answer with the recorded EC50 of hC3 cleavage of MTSP-1 Q38E/H40R/I41H/D60bK/F97D/F99L/C122S/Q175L/Q192G (enzyme) VVGGTDADEGEWPWQVSLHALGEGRHCGASLISPNWLVSAAHCYIDKRGFRYSDPTQWTAFLGLHDQSQRSAPGVQERRLKRIISHPFFNDDTLDYDIALLELEKPAEYSSMVRPISLPDASHVFPAGKAIWVTGWGHTQYGGTGALILQKGEIRVINQTTCENLLPQLITPRMMCVGFLSGGVDSCGGDSGGPLSSVEADGRIFQAGVVSWGDGCAQRNKPGVYTRLPLFRDWIKENTGV only.
A: 15.3 nM

Q: Answer with the recorded EC50 of hC3 cleavage of MTSP-1 Q38E/I41S/D60bV/F60eK/Y60gW/F97T/ins97aE/T98G/F99L/C122S/G151N/Q175L/Q192D (enzyme) VVGGTDADEGEWPWQVSLHALGEGHSCGASLISPNWLVSAAHCYIDVRGKRWSDPTQWTAFLGLHDQSQRSAPGVQERRLKRIISHPFFNDTEGLDYDIALLELEKPAEYSSMVRPISLPDASHVFPAGKAIWVTGWGHTQYGGTNALILQKGEIRVINQTTCENLLPQLITPRMMCVGFLSGGVDSCDGDSGGPLSSVEADGRIFQAGVVSWGDGCAQRNKPGVYTRLPLFRDWIKENTGV only.
A: 12.1 nM
